A collection of molecules and their measured hERG current change (%, negative = inhibition) at 10uM
Biological target: human ether-à-go-go-related gene (hERG) potassium channel (human);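 note: peak tail current of the secondary pulse compared with the same well before compound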
Sequence (Q12809 whole entry, looked up): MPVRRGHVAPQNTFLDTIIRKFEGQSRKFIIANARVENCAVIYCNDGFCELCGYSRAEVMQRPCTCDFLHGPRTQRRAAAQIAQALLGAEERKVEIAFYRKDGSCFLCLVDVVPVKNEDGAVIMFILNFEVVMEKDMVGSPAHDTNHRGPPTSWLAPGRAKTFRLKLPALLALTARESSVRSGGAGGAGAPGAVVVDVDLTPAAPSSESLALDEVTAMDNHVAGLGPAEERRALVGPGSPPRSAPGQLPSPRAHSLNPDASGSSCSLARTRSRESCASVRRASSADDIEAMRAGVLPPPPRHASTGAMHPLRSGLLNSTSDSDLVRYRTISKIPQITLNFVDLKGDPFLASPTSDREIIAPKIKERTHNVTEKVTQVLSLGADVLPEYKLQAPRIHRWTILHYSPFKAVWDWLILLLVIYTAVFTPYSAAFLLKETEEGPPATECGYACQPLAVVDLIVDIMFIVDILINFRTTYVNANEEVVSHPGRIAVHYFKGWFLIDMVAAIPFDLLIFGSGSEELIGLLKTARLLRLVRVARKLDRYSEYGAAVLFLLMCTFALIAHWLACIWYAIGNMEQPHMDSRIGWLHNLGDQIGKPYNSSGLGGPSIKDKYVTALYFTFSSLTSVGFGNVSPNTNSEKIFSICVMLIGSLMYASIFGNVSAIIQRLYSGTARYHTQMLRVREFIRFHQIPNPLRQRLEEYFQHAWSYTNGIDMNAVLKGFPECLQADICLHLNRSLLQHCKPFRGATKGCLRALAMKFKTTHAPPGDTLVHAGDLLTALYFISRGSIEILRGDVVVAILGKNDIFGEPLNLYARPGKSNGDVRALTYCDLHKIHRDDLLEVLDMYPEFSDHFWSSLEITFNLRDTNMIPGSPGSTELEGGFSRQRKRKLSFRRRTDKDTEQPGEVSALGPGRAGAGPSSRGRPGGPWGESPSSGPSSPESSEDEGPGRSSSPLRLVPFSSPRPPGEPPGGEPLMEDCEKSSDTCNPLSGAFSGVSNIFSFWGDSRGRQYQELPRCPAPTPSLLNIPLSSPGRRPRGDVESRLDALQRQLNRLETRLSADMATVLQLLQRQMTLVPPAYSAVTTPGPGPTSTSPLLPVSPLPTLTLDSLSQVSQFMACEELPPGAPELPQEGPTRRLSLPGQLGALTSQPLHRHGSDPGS
Experiment: primary screen, population patch clamp on CHO cells stably expressing hERG; higher = less effect of the substance
Protocol: Briefly, Chinese hamster ovary (CHO) cells stably expressing the hERG channel were dislodged from tissue culture flasks and dispensed into PPC plates. […] During the recording, background leak currents were estimated by a 100 ms step to -80 mV from an initial holding potential of -70 mV and subtracted from the subsequent current measurement. The campaign was conducted in two phases using slight differences in recording protocol. […]
Among all 310,000 compounds or so, about 14,000 (4.5%) showed an effect of 50% or more. Effects have a minus sign here. The sample as a whole holds a higher share of strong results than the screen did.
Dear colleague, please return just the value in %, with no unit written.

Worked cases, answers included:
[[record]]
molecule = "CCOC(=O)c1c(-c2ccccc2)csc1NC(=O)/C(C#N)=C/c1ccc(O)c(OC)c1"
experimental_value = -7.1

[[record]]
molecule = "Cc1ccc2c(c1)c1c3n2CCN(CC(N)=O)C3CCC1 (stereo not drawn)"
experimental_value = 25.6

[[record]]
molecule = "O=c1nc2ccccc2c2n1CC(CN1CCN(c3ccccc3F)CC1)N2 (stereo not drawn)"
experimental_value = -50.3

[[record]]
molecule = "Cc1cc(N2CCN(c3ccccc3)CC2)nc2ccccc12"
experimental_value = 3.04

[[record]]
molecule = "CCN(CC(=O)Nc1ccc(NC(C)=O)cc1)C(=O)c1oc2ccccc2c1C"
experimental_value = -20.2

[[record]]
molecule = "Clc1ccc(OCCCNCc2ccccc2)c2ccccc12.O=C(O)C(=O)O"
experimental_value = -1.92


Measured hERG current change (%, negative = inhibition) at 10uM for this entry Cl.OCCCCNCc1ccc(OCc2ccccc2Cl)cc1 on human ether-à-go-go-related gene (hERG) potassium channel (human): -15.9

The measured hERG current change (%, negative = inhibition) at 10uM that Clc1cc(Br)ccc1OCCCNCc1ccccc1.O=C(O)C(=O)O showed for human ether-à-go-go-related gene (hERG) potassium channel (human) is -30.1

Assay human ether-à-go-go-related gene (hERG) potassium channel (human), sample CCN(CC(=O)NCc1ccc(Cl)cc1)C(=O)CSc1ccc(F)cc1 , hERG current change (%, negative = inhibition) at 10uM read: -71.1

Observed hERG current change (%, negative = inhibition) at 10uM, human ether-à-go-go-related gene (hERG) potassium channel (human), c1ccc(-c2csc(N3CCN(c4ccccn4)CC3)n2)cc1 : -1.09

The molecule COc1ccccc1CCN1CCCC(CN(C)C(=O)c2ccc3nc[nH]c3c2)C1 (stereo not drawn) , when measured on human ether-à-go-go-related gene (hERG) potassium channel (human), yielded hERG current change (%, negative = inhibition) at 10uM of 12.1

Item: Cc1ccc2c(c1)c1c3n2CCN(CC#N)C3CCC1 (stereo not drawn) | System: human ether-à-go-go-related gene (hERG) potassium channel (human) | hERG current change (%, negative = inhibition) at 10uM: 2.24

Sample Cc1nnc2c(NC3CCCCC3)nc3ccccc3n12 , system: human ether-à-go-go-related gene (hERG) potassium channel (human). Its hERG current change (%, negative = inhibition) at 10uM is 1.89

The observed hERG current change (%, negative = inhibition) at 10uM for COc1ccccc1CCN1CCCC(CN(C)C(=O)c2ccoc2)C1 (stereo not drawn) when tested with human ether-à-go-go-related gene (hERG) potassium channel (human) stands at -51.2

Summary line: COc1cccc(N2CCN(Cc3nc4ccccc4c(=O)[nH]3)CC2)c1 , human ether-à-go-go-related gene (hERG) potassium channel (human), reported hERG current change (%, negative = inhibition) at 10uM = -18.9
